SUBJECT_OF_TEST: Nuclear receptor subfamily 1 group I member 2 (Homo sapiens)
PROTOCOL_NOTES: CYP3A4 induction through human pregnane X receptor (PXR) by small molecules, qHTS assay (AID 1346984); further: nearly all actives have a fitted effect of over 40% in size
TEST_SETTINGS: DPX-2 HepG2 PXR, CYP3A4-luciferin luminescence, 24 h; series mostly up to 46.1 µM
Results filed as inconclusive are left out. Activity calls are given as the source filed them. The call rests on the fitted dose curve; in most records, active means well fitted activation curve with a large enough effect in the repeat runs; inconclusive means weak or mixed curves; inactive means no such curve, though single readings can be large or run the other way.
REPORTED_PROPERTY: outcome

• CC(=O)NC1CCSC1=O (centres undefined) = inactive
• CCCCCCCCCC(=O)O[C@H]1CC[C@H]2[C@@H]3CCC4=CC(=O)CC[C@@H]4[C@H]3CC[C@]12C = inactive
• CCOP(=O)(OCC)O/C(=C/Cl)c1ccc(Cl)cc1Cl = inactive
• O=C1NCN(c2ccccc2)C12CCN(CCCOc1ccc(F)cc1)CC2 = inactive

* * *

PROTOCOL_NOTES: qHTS assay to identify small molecule agonists of the constitutive androstane receptor (CAR) signaling pathway - cell viability counter screen (AID 1224836); further: nearly all actives have a fitted effect of over 45% in size
TEST_SETTINGS: HepG2-CYP2B6-hCAR viability, CellTiter-Fluor, 23 h, PK11195 added to every well; series mostly up to 92.4 µM
Results filed as inconclusive are left out. Activity calls are given as the source filed them. Calls follow the shape of the dose curve; as a rule, active = well fitted cell-killing curve with a large enough effect in the repeat runs; inconclusive = weak or mixed curves, or effect the other way; inactive = flat fitted curve, though single readings scatter.
Please state which outcome applies, choosing from active, inactive

GET /call?item= Cc1c(F)c(F)c(COC(=O)C2C(/C=C(\Cl)C(F)(F)F)C2(C)C)c(F)c1F (stereo not given) returns the recorded outcome of this test. inactive

GET /call?item= Cc1ccccc1CCl returns the recorded outcome of this test. inactive

GET /call?item= O=[Se]=O returns the recorded outcome of this test. active

GET /call?item= CCCN(CCC)c1c([N+](=O)[O-])cc(S(C)(=O)=O)cc1[N+](=O)[O-] returns the recorded outcome of this test. inactive

GET /call?item= Brc1ccccc1 returns the recorded outcome of this test. inactive

* * *

SUBJECT_OF_TEST: Aryl hydrocarbon receptor (Homo sapiens) (UniProt P35869)
Sequence (P35869 whole entry, looked up): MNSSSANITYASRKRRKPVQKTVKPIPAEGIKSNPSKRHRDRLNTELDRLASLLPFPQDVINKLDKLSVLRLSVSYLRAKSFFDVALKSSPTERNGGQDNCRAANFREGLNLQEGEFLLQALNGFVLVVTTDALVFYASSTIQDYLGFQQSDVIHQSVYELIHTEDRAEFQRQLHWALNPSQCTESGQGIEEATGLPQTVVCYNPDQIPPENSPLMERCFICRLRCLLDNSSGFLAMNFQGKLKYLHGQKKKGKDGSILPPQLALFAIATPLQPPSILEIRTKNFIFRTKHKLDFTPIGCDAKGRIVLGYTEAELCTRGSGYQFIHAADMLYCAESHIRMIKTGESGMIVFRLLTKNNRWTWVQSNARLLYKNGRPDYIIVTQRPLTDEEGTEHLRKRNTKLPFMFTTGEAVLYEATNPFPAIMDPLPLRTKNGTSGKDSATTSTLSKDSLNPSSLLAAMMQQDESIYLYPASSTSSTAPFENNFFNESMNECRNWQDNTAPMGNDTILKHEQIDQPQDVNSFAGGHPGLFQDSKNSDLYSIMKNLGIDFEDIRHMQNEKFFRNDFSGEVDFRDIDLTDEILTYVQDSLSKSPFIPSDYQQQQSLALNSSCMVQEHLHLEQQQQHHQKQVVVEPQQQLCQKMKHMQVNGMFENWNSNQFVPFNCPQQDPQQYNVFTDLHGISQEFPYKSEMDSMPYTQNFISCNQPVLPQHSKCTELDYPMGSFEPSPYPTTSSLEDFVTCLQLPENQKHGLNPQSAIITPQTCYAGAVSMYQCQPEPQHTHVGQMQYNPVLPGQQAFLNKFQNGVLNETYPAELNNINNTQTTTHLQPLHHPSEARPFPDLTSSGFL
PROTOCOL_NOTES: qHTS assay to identify small molecule that activate the aryl hydrocarbon receptor (AhR) signaling pathway (AID 743085);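 further: HG2L7.5c1 human HepG2 liver cells with stably integrated DRE-driven firefly reporter; nearly all actives have a fitted effect of over 15% in size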
TEST_SETTINGS: HepG2 AhR-luc (HG2L7.5c1), luciferase, 24 h; series mostly up to 70.3 µM
Records with an inconclusive call do not appear. Calls of active or inactive are those of the source. The call rests on the fitted dose curve; in most records, active means well fitted activation curve with a large enough effect in the repeat runs; inconclusive means weak or mixed curves; inactive means no such curve, though single readings can be large or run the other way.
REPORTED_PROPERTY: outcome

- CC1CC(CC2CCC(N)C(C)C2)CCC1N (stereo not given): inactive
- CC(C)(Cl)[N+](=O)[O-]: inactive
- C#CCOC(C(=O)OCCN(C)C)(c1ccccc1)c1ccccc1: inactive
- CNC(C)Cc1ccccc1OC (stereo not given): inactive
- CCCCCCCCOC(=O)c1ccc(C(=O)OCCCCCCCC)c(C(=O)OCCCCCCCC)c1: inactive
- O=Cc1ccc(Cl)cc1Cl: inactive
- O=C(O)C(F)(F)C(F)(F)C(F)(F)C(F)(F)C(F)(F)C(F)(F)C(F)(F)C(F)(F)C(F)(F)C(F)(F)F: inactive
- CCCCCCCCCCOC(=O)c1ccccc1C(=O)OCCCCCCCCCC: inactive
- C[C@H]1CNCCc2ccc(Cl)cc21: inactive

Give the measured outcome of O=C(CBr)OCc1ccccc1 . inactive

* * *

PROTOCOL_NOTES: qHTS assay to identify small molecule antagonists of the thyroid receptor (TR) signaling pathway (AID 743065); further: nearly all actives have a fitted effect of over 55% in size
TEST_SETTINGS: GH3.TRE-Luc, T3-stimulated luciferase inhibition, 23.5 h; series mostly up to 70.3 µM
Results filed as inconclusive are left out. Activity calls are given as the source filed them. Calls follow the shape of the dose curve; as a rule, active = well fitted inhibition curve with a large enough effect in the repeat runs; inconclusive = weak or mixed curves; inactive = no such curve, though single readings can be large or run the other way.
Please state which outcome applies, choosing from yes (active), no (inactive)

GET /call?item= Clc1cc(C(Cl)(Cl)Cl)cnc1Cl returns the recorded outcome of this test. yes

GET /call?item= CCOP(=S)(OCC)SCn1nnc2ccccc2c1=O returns the recorded outcome of this test. yes

GET /call?item= Cc1ccc(N)cc1C returns the recorded outcome of this test. no

GET /call?item= CCCCN=C=O returns the recorded outcome of this test. no

GET /call?item= COC(N)=O returns the recorded outcome of this test. no

GET /call?item= COP(=O)(OC)O/C(=C/Cl)c1cc(Cl)c(Cl)cc1Cl returns the recorded outcome of this test. yes

GET /call?item= COC(=O)c1cncn1C(C)c1ccccc1 (stereo not given) returns the recorded outcome of this test. no

GET /call?item= CCOP(O)OCC returns the recorded outcome of this test. no

GET /call?item= O=[Se]=O returns the recorded outcome of this test. yes

GET /call?item= CC(C)(CCl)C(=O)Cl returns the recorded outcome of this test. no

GET /call?item= C/C=C/C=O returns the recorded outcome of this test. no

GET /call?item= CCCN(CCCl)c1c([N+](=O)[O-])cc(C(F)(F)F)cc1[N+](=O)[O-] returns the recorded outcome of this test. no

GET /call?item= CCN(C)N=O returns the recorded outcome of this test. no

GET /call?item= O=C(O)c1ccccc1C(=O)Nc1cccc2ccccc12 returns the recorded outcome of this test. no

GET /call?item= C[N+](C)(C)CCCl returns the recorded outcome of this test. no

GET /call?item= N#CCC#N returns the recorded outcome of this test. yes

GET /call?item= NNC(=O)c1cccnc1 returns the recorded outcome of this test. no

GET /call?item= CC[C@H]1C[C@H]2[C@@H]3CCC4=CC(=O)CC[C@@H]4[C@H]3CC[C@]2(C)[C@H]1O returns the recorded outcome of this test. yes

GET /call?item= C=C(C#N)CCC#N returns the recorded outcome of this test. no

GET /call?item= CCBr returns the recorded outcome of this test. no

GET /call?item= O=C1NCN(c2ccccc2)C12CCN(CCCOc1ccc(F)cc1)CC2 returns the recorded outcome of this test. yes

GET /call?item= CNC(C)Cc1ccccc1OC (stereo not given) returns the recorded outcome of this test. no

GET /call?item= Clc1cccc(SC2CCNCC2)n1 returns the recorded outcome of this test. no

GET /call?item= CCC(Br)(CC)C(=O)NC(N)=O returns the recorded outcome of this test. no

GET /call?item= CO/C=C(/C(=O)OC)c1ccccc1COc1cccc(C(F)(F)F)n1 returns the recorded outcome of this test. yes

GET /call?item= CC(C)(C)c1cc([N+](=O)[O-])cc([N+](=O)[O-])c1O returns the recorded outcome of this test. yes

GET /call?item= O=[N+]([O-])c1ccc(F)c([N+](=O)[O-])c1 returns the recorded outcome of this test. yes

GET /call?item= O=Cc1ccc(Cl)cc1Cl returns the recorded outcome of this test. no

GET /call?item= Cc1ccc2ccccc2c1 returns the recorded outcome of this test. no

GET /call?item= CCCN(CCC)c1c([N+](=O)[O-])cc(S(C)(=O)=O)cc1[N+](=O)[O-] returns the recorded outcome of this test. no

GET /call?item= O=NN1CCCCCC1 returns the recorded outcome of this test. no

GET /call?item= O=C(O)C(F)(F)C(F)(F)C(F)(F)C(F)(F)C(F)(F)C(F)(F)C(F)(F)C(F)(F)C(F)(F)F returns the recorded outcome of this test. no

GET /call?item= COC(=O)C(C)N(C(=O)Cc1ccccc1)c1c(C)cccc1C (stereo not given) returns the recorded outcome of this test. yes

GET /call?item= O=[N+]([O-])c1cc(C(F)(F)F)cc([N+](=O)[O-])c1Cl returns the recorded outcome of this test. no

GET /call?item= O=C(O)C1(c2ccc3c(c2)OC[C@H](Cc2ccc(-c4ccccc4)cc2)[C@H]3O)CCCC1 returns the recorded outcome of this test. yes

GET /call?item= NCCCNCCCN returns the recorded outcome of this test. yes

GET /call?item= CCCCCCCCCC(=O)O[C@H]1CC[C@H]2[C@@H]3CCC4=CC(=O)CC[C@@H]4[C@H]3CC[C@]12C returns the recorded outcome of this test. no

GET /call?item= N#C/C(N)=C(/N)C#N returns the recorded outcome of this test. no

GET /call?item= COC(=O)C(Br)CBr (stereo not given) returns the recorded outcome of this test. no

GET /call?item= Cc1ccc(-c2c(Cl)nc(C#N)n2S(=O)(=O)N(C)C)cc1 returns the recorded outcome of this test. yes

GET /call?item= CCOC(=O)COc1cc(-c2nn(C)c(OC(F)F)c2Cl)c(F)cc1Cl returns the recorded outcome of this test. no

GET /call?item= C=CCN1CC[C@]23c4c5ccc(O)c4O[C@H]2C(=O)CC[C@@]3(O)[C@H]1C5 returns the recorded outcome of this test. no

GET /call?item= CCOP(=O)(OCC)Oc1ccc([N+](=O)[O-])cc1 returns the recorded outcome of this test. no

GET /call?item= Brc1ccccc1 returns the recorded outcome of this test. no

GET /call?item= CC(=O)c1cc2c(cc1C)C(C)(C)C(C)CC2(C)C (stereo not given) returns the recorded outcome of this test. no
